- test system: T1, Pab2 (nuclear poly(A) binding protein) (Schizosaccharomyces pombe, UniProt O14327 1-166)
- T1 sequence: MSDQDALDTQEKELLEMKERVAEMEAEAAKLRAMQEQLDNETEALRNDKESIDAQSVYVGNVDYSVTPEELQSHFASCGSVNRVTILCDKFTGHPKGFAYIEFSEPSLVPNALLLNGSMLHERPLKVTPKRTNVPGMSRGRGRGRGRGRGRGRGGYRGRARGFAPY
- procedure summary: filter binding
pKd: −log10 of the molar value.
readout name: pKd

[
  {
    "binder": "AAAAAAAAAAAAAA (ssRNA) [A14]",
    "readout name": "pKd",
    "measurement": 8.28
  }
]

Every entry's value here was drawn from paper PMC5340911.
